Biological target: Abf1 (UniProt P14164)
Sequence: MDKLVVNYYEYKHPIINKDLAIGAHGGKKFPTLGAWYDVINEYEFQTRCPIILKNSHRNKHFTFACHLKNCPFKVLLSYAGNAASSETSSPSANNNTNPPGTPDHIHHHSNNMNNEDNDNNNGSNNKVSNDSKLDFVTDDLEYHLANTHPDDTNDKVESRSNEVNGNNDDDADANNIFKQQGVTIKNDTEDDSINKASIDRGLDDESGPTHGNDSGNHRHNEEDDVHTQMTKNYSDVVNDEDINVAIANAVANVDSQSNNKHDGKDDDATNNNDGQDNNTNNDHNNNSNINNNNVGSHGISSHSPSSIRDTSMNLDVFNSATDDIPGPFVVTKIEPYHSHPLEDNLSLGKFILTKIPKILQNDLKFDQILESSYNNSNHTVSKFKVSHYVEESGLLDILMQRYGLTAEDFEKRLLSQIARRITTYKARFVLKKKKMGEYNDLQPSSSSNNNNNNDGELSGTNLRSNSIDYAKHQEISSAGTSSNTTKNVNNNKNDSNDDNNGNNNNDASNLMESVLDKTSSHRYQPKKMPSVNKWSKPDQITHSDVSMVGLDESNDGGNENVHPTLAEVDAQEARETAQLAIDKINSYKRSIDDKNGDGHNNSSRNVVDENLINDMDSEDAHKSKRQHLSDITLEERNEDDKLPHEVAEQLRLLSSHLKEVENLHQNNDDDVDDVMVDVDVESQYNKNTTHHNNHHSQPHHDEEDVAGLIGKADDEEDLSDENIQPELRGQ
Test: PBM E-score (8-mer binding enrichment) (E-score (-0.5 to 0.5)); higher = stronger / more preferred TF binding
Conditions: protein concentration: 200 nM; construct: GST-full length
The full ranking holds about 33,000 sequences; the median of “E-score (-0.5 to 0.5)” is about -0.015, and the highest 2% start at about 0.3. The full list was thinned out, with the highest values kept by preference.
If the reported PBM E-score equals or exceeds 0.1, assign true. If not, assign false.

Examples from the recorded data:
{"MACROMOLECULE_SEQUENCE": "AAACCTGC", "SUBJECT_OF_TEST": "Abf1 (UniProt P14164)", "LABEL": "false"}
{"MACROMOLECULE_SEQUENCE": "CGACACGC", "SUBJECT_OF_TEST": "Abf1 (UniProt P14164)", "LABEL": "false"}
{"MACROMOLECULE_SEQUENCE": "CCTTAAGC", "SUBJECT_OF_TEST": "Abf1 (UniProt P14164)", "LABEL": "false"}
{"MACROMOLECULE_SEQUENCE": "CATATCAG", "SUBJECT_OF_TEST": "Abf1 (UniProt P14164)", "LABEL": "false"}
{"MACROMOLECULE_SEQUENCE": "CCGTACGG", "SUBJECT_OF_TEST": "Abf1 (UniProt P14164)", "LABEL": "true"}

Hi team, for `ATGTCAAG` , is the recorded PBM E-score at or above 0.1?
false

Decide: PBM E-score of `ATGTCATG` >= 0.1?
true

Test whether the sequence `AATATCGA` records PBM E-score of 0.1 or higher.
false

Determine whether this sequence has PBM E-score no lower than 0.1: `TCACACAA`
false

Check the entry `CTACACGA` : does PBM E-score equal or exceed 0.1?
true

Textbook exercise: given the entry `CGGGATGA` , state whether its PBM E-score is greater than or equal to 0.1.
false

Can `AGATCGCA` be said to have PBM E-score at or above 0.1?
false

Please check the record `CCCAAAAG` and state if its PBM E-score is at or above 0.1.
false

Identify whether the reported PBM E-score of the following sequence is 0.1 or greater: `CACAACCC`
false

Item `CGACACGA` with PBM E-score of 0.1 or above?
true

Form field: PBM E-score at least 0.1? Entry: `AAGTACGA`
true
